# Test system: NIH3T3
# RUN DESCRIPTION: Cytotoxic Profiling of Annotated Libraries Using Quantitative High-Throughput Screening (AID 1296008); note: nearly all actives have a fitted effect of over 60% in size; note: potency is the fitted concentration of half-maximal effect
# TEST PARAMETERS: Five cell lines viability, CellTiter-Glo ATP luminescence, 48-72 h
Inconclusive results are not listed. Activity calls are given as the source filed them. Calls come from the whole dose curve; as a rule, active = well fitted inhibition curve with a large enough effect; inconclusive = small, poorly fitted or top-dose-only effect; inactive = flat fitted curve, though single readings scatter.
METRIC: Potency

Observe how each entry below is paired with its result.
- MOLECULE: "Oc1c(Cl)cc(Cl)c2cccnc12"
  Potency: "23.7 µM (active)"
- MOLECULE: "Cc1nnc(C(=O)NC(C)(C)c2nc(C(=O)NCc3ccc(F)cc3)c(O)c(=O)n2C)o1"
  Potency: "inactive"
- MOLECULE: "CCc1c2c(nc3ccc(OC(=O)N4CCC(N5CCCCC5)CC4)cc13)-c1cc3c(c(=O)n1C2)COC(=O)[C@]3(O)CC"
  Potency: "14.8 µM (active)"
- MOLECULE: "O=C(O)c1cn(C2CC2)c2cc(N3CCNCC3)c(F)cc2c1=O"
  Potency: "inactive"
- MOLECULE: "CC(N)C12CC3CC(CC(C3)C1)C2 (stereo not drawn)"
  Potency: "inactive"
- MOLECULE: "CC1=C(C(=O)O)N2C(=O)[C@@H](NC(=O)C(N)c3ccccc3)[C@H]2SC1 (stereo partly drawn)"
  Potency: "inactive"
- MOLECULE: "CC1=CC(=O)c2ccccc2C1=O"
  Potency: "inactive"
- MOLECULE: "CNC1CCCN(c2c(F)cc3c(=O)c(C(=O)O)cn(C4CC4)c3c2OC)C1 (stereo not drawn)"
  Potency: "inactive"
- MOLECULE: "COc1ccc(-c2ccc3cc(C(=O)O)ccc3c2)cc1C12CC3CC(CC(C3)C1)C2"
  Potency: "inactive"
- MOLECULE: "Cn1nnc2c(C(N)=O)ncn2c1=O"
  Potency: "inactive"

Input line: Quick one: Potency of CCc1cc(C(N)=S)ccn1 ?
Output line: inactive

* * *

# RUN DESCRIPTION: Cell Viability - SH-SY5Y (AID 544);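 note: cells exposed to compound for 40 hours; nearly all actives have a fitted effect of over 55% in size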
# TEST PARAMETERS: SH-SY5Y neuroblastoma cell viability
Records with an inconclusive call do not appear. Activity calls are given as the source filed them. Calls follow the shape of the dose curve; as a rule, active = well fitted cell-killing curve with a large enough effect; inconclusive = small, poorly fitted or top-dose-only effect; inactive = flat fitted curve, though single readings scatter.
Log the outcome using a class from active, inactive

Answered examples (8):
- STRUCTURE: "CC(=O)Oc1ccccc1C(=O)Nc1ncc([N+](=O)[O-])s1"
  ASSIGNED CATEGORY: "active"
- STRUCTURE: "CC1=NN(c2ccccc2)C(=O)C1"
  ASSIGNED CATEGORY: "inactive"
- STRUCTURE: "C[C@]12C=CC(=O)C=C1CC[C@@H]1[C@@H]2C(=O)C[C@@]2(C)[C@H]1CC[C@]2(O)C(=O)CO"
  ASSIGNED CATEGORY: "inactive"
- STRUCTURE: "NC(N)=NC(N)=NCCc1ccccc1"
  ASSIGNED CATEGORY: "inactive"
- STRUCTURE: "CCc1cc(C(N)=S)ccn1"
  ASSIGNED CATEGORY: "inactive"
- STRUCTURE: "N=C(N)c1ccc(OCCCCCOc2ccc(C(=N)N)cc2)cc1"
  ASSIGNED CATEGORY: "inactive"
- STRUCTURE: "Cc1noc(NS(=O)(=O)c2ccc(N)cc2)c1C"
  ASSIGNED CATEGORY: "inactive"
- STRUCTURE: "O=C(O)c1cc(=O)[nH]c(=O)[nH]1"
  ASSIGNED CATEGORY: "inactive"

Here is the next item to consider.
Input line: Just curious, what result did CN(C)c1ccc(C(=C2C=CC(=[N+](C)C)C=C2)c2ccc(N(C)C)cc2)cc1 get here?
Output line: active
